Test target: Poly [ADP-ribose] polymerase 1 (Homo sapiens, UniProt P09874)
Sequence (P09874 whole entry): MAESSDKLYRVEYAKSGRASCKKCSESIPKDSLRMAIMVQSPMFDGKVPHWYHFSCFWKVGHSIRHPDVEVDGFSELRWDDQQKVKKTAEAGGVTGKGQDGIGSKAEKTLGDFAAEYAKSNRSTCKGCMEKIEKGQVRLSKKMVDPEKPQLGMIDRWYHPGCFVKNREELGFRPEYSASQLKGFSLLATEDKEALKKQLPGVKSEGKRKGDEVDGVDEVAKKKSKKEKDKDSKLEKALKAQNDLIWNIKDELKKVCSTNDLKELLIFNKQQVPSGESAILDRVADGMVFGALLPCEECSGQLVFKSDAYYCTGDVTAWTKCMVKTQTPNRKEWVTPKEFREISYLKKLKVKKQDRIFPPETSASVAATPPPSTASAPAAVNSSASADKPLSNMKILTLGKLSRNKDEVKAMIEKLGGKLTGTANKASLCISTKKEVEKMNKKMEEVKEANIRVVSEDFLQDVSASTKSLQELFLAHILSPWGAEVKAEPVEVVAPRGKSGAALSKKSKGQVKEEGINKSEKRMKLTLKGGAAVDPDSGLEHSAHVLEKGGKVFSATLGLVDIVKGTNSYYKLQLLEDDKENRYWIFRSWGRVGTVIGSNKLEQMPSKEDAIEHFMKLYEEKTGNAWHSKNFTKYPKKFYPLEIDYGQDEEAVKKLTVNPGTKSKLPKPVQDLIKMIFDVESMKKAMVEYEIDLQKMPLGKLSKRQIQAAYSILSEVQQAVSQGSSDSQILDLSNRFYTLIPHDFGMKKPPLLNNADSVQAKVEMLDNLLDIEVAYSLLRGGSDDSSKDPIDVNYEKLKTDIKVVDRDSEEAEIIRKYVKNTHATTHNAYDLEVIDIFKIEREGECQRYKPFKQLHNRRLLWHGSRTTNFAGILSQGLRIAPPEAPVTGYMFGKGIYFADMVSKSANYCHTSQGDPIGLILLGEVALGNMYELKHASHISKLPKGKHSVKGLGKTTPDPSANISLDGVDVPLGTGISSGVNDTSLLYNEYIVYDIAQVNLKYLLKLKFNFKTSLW
Measurement notes: Inhibition of recombinant human PARP1 by in vitro assay
Measured metric: IC50 (nM)

Compound	Test value
COC(=O)[C@@H]1CCCN1CC(=O)c1ccc2[nH]c3c4c(c5c(c3c2c1)C(=O)NC5=O)CCC4	12

I. O=C(CN1CCOCC1)c1ccc2[nH]c3c4c(c5c(c3c2c1)C(=O)NC5=O)CCC4
II. O=C(CCC(=O)N1CCC[C@H]1C(=O)O)c1ccc2[nH]c3c4c(c5c(c3c2c1)C(=O)NC5=O)CCC4
III. CN(CC(=O)OC(C)(C)C)CC(=O)c1ccc2[nH]c3c4c(c5c(c3c2c1)C(=O)NC5=O)CCC4
IV. O=C(CN1CCC[C@H]1C(=O)O)c1ccc2[nH]c3c4c(c5c(c3c2c1)C(=O)NC5=O)CCC4
# sort list by recorded IC50, greatest to least Reply with the labels, ordered as the question asks. III, I, IV, II

###

Test target: Poly [ADP-ribose] polymerase 1 (Rattus norvegicus)
Measurement notes: Inhibition of PARP1 in rat PC12 cells assessed as NAD+ recovery at 30 uM pre-treated for 1 hr before hydrogen peroxide addition followed by washout and compound treated again for 1 hr relative to 5H-phenanthridin-6-one
Format: cell-based
Experimental context: PC-12
Measured metric: inhibition (%)

Worked cases, answers included:
Compound	Test target	Measured metric	Uom	Test value
O=C(CCC(=O)N1CCCC1)c1ccc2[nH]c3c4c(c5c(c3c2c1)C(=O)NC5=O)CCC4	Poly [ADP-ribose] polymerase 1 (Rattus norvegicus)	inhibition	%	92
COC(=O)[C@@H]1CCCN1CC(=O)c1ccc2[nH]c3c4c(c5c(c3c2c1)C(=O)NC5=O)CCC4	Poly [ADP-ribose] polymerase 1 (Rattus norvegicus)	inhibition	%	100

A. CC(C)(C)OC(=O)[C@@H]1CCCN1C(=O)CCC(=O)c1ccc2[nH]c3c4c(c5c(c3c2c1)C(=O)NC5=O)CCC4
B. CC(C)(C)OC(=O)NCCNC(=O)CCC(=O)c1ccc2[nH]c3c4c(c5c(c3c2c1)C(=O)NC5=O)CCC4
Between item A and item B , which reported inhibition is smaller? Bench note: the answer is the label of the chosen record. B

1. CN(CC(=O)O)CC(=O)c1ccc2[nH]c3c4c(c5c(c3c2c1)C(=O)NC5=O)CCC4
2. O=C(CCC(=O)N1CCOCC1)c1ccc2[nH]c3c4c(c5c(c3c2c1)C(=O)NC5=O)CCC4
3. CC(C)(C)OC(=O)N1CCN(C(=O)CCC(=O)c2ccc3[nH]c4c5c(c6c(c4c3c2)C(=O)NC6=O)CCC5)CC1
# sort list by recorded inhibition, greatest to least Reply with the labels, ordered as the question asks. 2, 1, 3

P. O=C(CN1CCC[C@H]1C(=O)O)c1ccc2[nH]c3c4c(c5c(c3c2c1)C(=O)NC5=O)CCC4
Q. CCN(CC)CC(=O)c1ccc2[nH]c3c4c(c5c(c3c2c1)C(=O)NC5=O)CCC4
Between item P and item Q , which reported inhibition is smaller? Bench note: the answer is the label of the chosen record. P
(P: 43%, Q: 70%)

###

Test target: Poly [ADP-ribose] polymerase 1 (Rattus norvegicus)
Measurement notes: Inhibition of PARP1 in rat PC12 cells assessed as NAD+ recovery at 1 uM pre-treated for 1 hr before hydrogen peroxide addition followed by washout and compound treated again for 1 hr relative to control
Type: cell-based
Experimental context: PC-12
Measured metric: inhibition (%)

Worked cases, answers included:
Compound	inhibition, %
O=C(Cn1cncn1)c1ccc2[nH]c3c4c(c5c(c3c2c1)C(=O)NC5=O)CCC4	25
O=C1NC(=O)c2c1c1c(c3[nH]c4ccccc4c23)CCC1	30
CCN(CC)CC(=O)c1ccc2[nH]c3c4c(c5c(c3c2c1)C(=O)NC5=O)CCC4	10
CN(CC(=O)OC(C)(C)C)CC(=O)c1ccc2[nH]c3c4c(c5c(c3c2c1)C(=O)NC5=O)CCC4	14
O=C(CN1CCOCC1)c1ccc2[nH]c3c4c(c5c(c3c2c1)C(=O)NC5=O)CCC4	38

a. CN(CC(=O)O)CC(=O)c1ccc2[nH]c3c4c(c5c(c3c2c1)C(=O)NC5=O)CCC4
b. O=C(CCC(=O)N1CCC[C@H]1C(=O)O)c1ccc2[nH]c3c4c(c5c(c3c2c1)C(=O)NC5=O)CCC4
c. CN1N=C(c2ccc3[nH]c4c5c(c6c(c4c3c2)C(=O)NC6=O)CCC5)CCC1=O
d. O=C(O)CCC(=O)c1ccc2[nH]c3c4c(c5c(c3c2c1)C(=O)NC5=O)CCC4
Order the records, beginning with the lowest inhibition and ending with the highest. Reply with the labels, ordered as the question asks. b, d, a, c
(b: 4%, d: 8%, a: 14%, c: 29%)
